- EXPERIMENTAL SYSTEM: recombinant soluble homotrimeric HA of A/swine/Ontario/01911-2/99 (H4N6) (Influenza A virus A/Swine/Ontario/01911-2/99 (H4N6))
- EXPERIMENT SUMMARY: HA microarray, BCC supernatant
- REPORTED CONDITIONS: remark: other sources report otherwise
RESULT TYPE: Trimeric HA Binding: RLU (RLU)

BINDER: TCN-532 (5262_H18) (antibody, V domains shown) VH: QVQLQESGPGLVKPSETLSLTCTVSGGSVSSETYYWSWIRQPPGKGLEWIGYIYYIGNTDYRPSLKSRVTISLDTSKNQFSLKLSSVTAADTAVYYCARGAYYDSSGYPAFYIWGQGTMVTVSS VL: QSVLTQPPSVSGAPGQRVTISCTGSSSNIGSDYDVHWYKQLPGTAPKLLIFGNSNRPSGVPDRFSGSKSGTSASLAITGLQAEDEADYYCQSYDSSLSGFHVFGSGTKVTVL
U: RLU
READOUT VALUE: 119
--
BINDER: TCN-557 (5081_A04) (antibody, V domains shown) VH: QVQLVQSGAEVKKPGASVKVSCKASGHTFTGYYIHWVRQAPGQGLEWMGWINPDSGATSSAQNFQGRVTMTGDTSSSTAYMELSRLSFDDTAVYYCARVLFTSPFDFWGEGTLVTVSS VL: QAVVTQEPSLAVSPGGTVTLTCGSSTGAVTRGHYPYWFQQKPGQAPRALIYDSAGNRHSWTPARFSGSLLGGKAALTLSGAQPEDEAEYYCLLSYSGVWVFGGGTKLTVL
U: RLU
READOUT VALUE: 27000
--
BINDER: TCN-553 (5261_C18) (antibody, V domains shown) VH: QVQVVQSGTEVKKPGSSVKVSCQTSGGRFMSYAITWVRQAPGQGLEWMGGIVPVFGTANYAQKFQGRVTITTDDSTRTAYMELSSLRSEDTAVYYCGFRYGSGYGFDSWGQGTLVTVSS VL: EIVLTQSPGTLSLSPGERATLSCRASQSVSSSYLAWYQKKPGQAPRLLIYGASTRATGIPDRFTGSGSGTDFTLSISRLEPEDFAVYYCQHFGTSVFTFGGGTKVEIK
U: RLU
READOUT VALUE: 2580
